These measurements were taken from PubChem BioAssay AID1814.

# experiment_summary: Activators via SNCA 5'UTR binding, MLPCN (AID 1814)
# study_conditions: alpha-synuclein 5'UTR reporter, activators screen; stronger effect = lower value; tested at 7.5 µM
Among all 300,000 compounds or so, about 22,000 (7.3%) were called active. Another 2% or so got no clear call; they are omitted. The entries come from a sample that favours actives as a whole.
readout_label: activity score

> print(dat)
                                    compound   readout.label          observed
 1    O=C(Nc1ncccc1O)c1ccc(C(=O)c2ccccc2)cc1  activity score    -507% (active)
 2      Cc1ccc(-c2csc(NC(=O)c3cnccn3)n2)cc1C  activity score   -97.7% (active)
 3  O=C(Nc1ncccc1O)c1ccc(S(=O)(=O)N2CCCC2)cc1  activity score   -67.4% (active)
 4  O=C(CCc1ccccc1)Nc1cccc(-c2nnc(-c3ccco3)o2)c1  activity score   -74.1% (active)
 5  CC1CCN(c2ccc(-c3ccc(NC(=O)c4ccco4)cc3)nn2)CC1  activity score    -144% (active)
 6  Cc1ccc(C(=O)Nc2ccc3c(c2)OCO3)cc1S(=O)(=O)N1CCCCC1  activity score   -66.6% (active)
 7           COc1ccc(Nc2nc(-c3ccccc3)cs2)cc1  activity score    -137% (active)
 8       CSc1nc2ccc(NC(=O)c3c(F)cccc3F)cc2s1  activity score    -166% (active)
 9      CCOC(=O)c1cccc(NC(=O)c2ccc(F)cc2F)c1  activity score    -127% (active)
10  CC(C)n1c(=O)[nH]c2cc(C(=O)Nc3ccccc3)ccc21  activity score    -119% (active)
11        COc1ccc(-c2csc(Nc3ccc(O)cc3)n2)cc1  activity score    -170% (active)
12       Cc1nn(C(=O)c2ccoc2C)c(N)c1-c1ccccc1  activity score    -109% (active)
13              Cc1ccccc1Nc1nc(-c2cccnc2)cs1  activity score    -179% (active)
14  CC1(C)C=Cc2c(ccc3c2OC[C@@H](c2ccc(O)cc2O)C3)O1  activity score    -154% (active)
15       O=C(Nc1cccnc1Cl)c1cc(-c2ccccc2O)on1  activity score    -179% (active)
16  Cn1c(=O)n(C)c2cc(C(=O)Nc3ccc(Br)cc3)ccc21  activity score   -80.7% (active)
17   NS(=O)(=O)c1ccc(Nc2nc(-c3ccccc3)cs2)cc1  activity score    -117% (active)
18              CC1(C)CCSC(/C=C/c2ccccc2)=N1  activity score    -123% (active)
19  COc1ccc(-c2nnc(SC(C)C#N)o2)cc1 (centres undefined)  activity score   -98.3% (active)
20  COC(=O)/C(=C1\Oc2ccc(C(C)(C)C)cc2S1)C(F)(F)F  activity score    -189% (active)
21                 Cc1nc(NC(=O)C2CCCCC2)sc1C  activity score    -136% (active)
22         C=CCNc1cnn(-c2ccc(C)cc2)c(=O)c1Cl  activity score   -80.9% (active)
23  COc1cc(/C=C2/C(=O)ON=C2C)ccc1OCc1cccc(F)c1  activity score    -149% (active)
24  Cc1ccc(N=C2NC(=O)c3cccc([N+](=O)[O-])c32)cc1  activity score    -141% (active)
25        Cc1cc(Cl)nc(NC(=O)Nc2cccc(Cl)c2)n1  activity score   -64.7% (active)
26      COc1cccc2[nH]c(C(=O)NCCc3ccccc3)cc12  activity score    -162% (active)
27           C=C(C)CSc1nc(N)c2c3c(sc2n1)CCC3  activity score    -152% (active)
28          CCOC(=O)c1ccc(NC(=O)Cc2cccs2)cc1  activity score    -126% (active)
29  O=[N+]([O-])c1ccc2c(c1)C(O)n1nc(-c3ccccc3)nc1S2 (centres undefined)  activity score   -63.3% (active)
30       Clc1ccc(-c2cc(-c3ccccn3)on2)c(Cl)c1  activity score   108% (inactive)
31                 CCOc1ccc(/C=N/NC(N)=S)cc1  activity score   -63.3% (active)
32           O=C(c1cc(-c2ccccc2O)on1)N1CCCC1  activity score    -142% (active)
33         O=c1cc(-c2ccccc2)[nH]c2cc(F)ccc12  activity score  93.3% (inactive)
34  COc1cccc2cc(C(N)=O)/c(=N\NC(=O)c3ccccc3)oc12  activity score   -61.9% (active)
35  COc1ccc(C2=NOC(COC(=O)c3ccc4ccccc4n3)C2)cc1 (centres undefined)  activity score   -68.4% (active)
36  CC(=O)c1ccc(Oc2cc(C)nc(-n3nc(C)cc3C)n2)cc1  activity score  80.1% (inactive)
37  Cc1ccc(OCC(=O)Nc2ccc(-c3nnc(-c4ccco4)o3)cc2)cc1  activity score   -69.1% (active)
38  CCc1ccc2c(c1)C1(NN=C(c3ccccc3)S1)C(=O)N2 (centres undefined)  activity score  71.7% (inactive)
39  Cn1c(SCc2nc3ccccc3s2)nnc1-c1ccc2c(c1)OCO2  activity score   -72.1% (active)
40     COC(=O)c1cn(CC(=O)NCc2cccs2)c2ccccc12  activity score    -111% (active)
41             C=CCNC(=O)c1cc(-c2ccccc2O)on1  activity score   -65.4% (active)
42       O=C(NCc1ccccn1)c1cc(-c2ccccc2Cl)on1  activity score   -99.8% (active)
43  CCNC(=O)N1CCNC(=O)C1CC(=O)Nc1ccc(C(=O)OCC)cc1 (centres undefined)  activity score   -69.7% (active)
44            CCCC(=O)Nc1ccc2c(c1)nc1n2CCSC1  activity score   -94.7% (active)
45     CCC(=O)Nc1ccc(-c2ccc(N3CCCCC3)nn2)cc1  activity score    -132% (active)
46  CCOC(=O)c1cnc(Nc2nc3ccccc3o2)nc1CSC(=S)N1CCCCC1  activity score    -133% (active)
47                Cc1csc(NC(=O)c2ccc(C)s2)n1  activity score    -174% (active)
48    COc1ccc2c(c1)CCc1c(C(=O)N3CCCC3)noc1-2  activity score    -103% (active)
49         COc1ccc(-c2csc(Cc3nc(O)cs3)n2)cc1  activity score    -207% (active)
